Values from ChEMBL document CHEMBL1240486

system: Mu-type opioid receptor (Homo sapiens, UniProt P35372)
Sequence (P35372 whole entry): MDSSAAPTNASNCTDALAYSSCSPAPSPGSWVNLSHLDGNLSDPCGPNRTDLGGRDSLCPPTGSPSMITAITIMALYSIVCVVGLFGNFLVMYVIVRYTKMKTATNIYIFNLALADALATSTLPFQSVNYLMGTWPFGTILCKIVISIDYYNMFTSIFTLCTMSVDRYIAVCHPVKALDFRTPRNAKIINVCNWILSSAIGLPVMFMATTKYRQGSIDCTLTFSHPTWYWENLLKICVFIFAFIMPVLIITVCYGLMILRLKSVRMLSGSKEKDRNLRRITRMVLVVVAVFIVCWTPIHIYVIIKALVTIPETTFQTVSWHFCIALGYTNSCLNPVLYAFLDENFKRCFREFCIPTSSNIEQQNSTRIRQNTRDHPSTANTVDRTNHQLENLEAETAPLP
pKi: −log10 of the molar value.
measure: pKi

[[record]]
sample_smiles = "Cl.Cn1c(=O)[nH]c2c([nH]c(=O)n2C)c1=N"
system = "Mu-type opioid receptor (Homo sapiens, UniProt P35372)"
reported_value = 5.05


----------
system: Neuronal acetylcholine receptor; alpha3/beta2 (Homo sapiens, UniProt P17787+P32297)
Sequence (P17787 whole entry): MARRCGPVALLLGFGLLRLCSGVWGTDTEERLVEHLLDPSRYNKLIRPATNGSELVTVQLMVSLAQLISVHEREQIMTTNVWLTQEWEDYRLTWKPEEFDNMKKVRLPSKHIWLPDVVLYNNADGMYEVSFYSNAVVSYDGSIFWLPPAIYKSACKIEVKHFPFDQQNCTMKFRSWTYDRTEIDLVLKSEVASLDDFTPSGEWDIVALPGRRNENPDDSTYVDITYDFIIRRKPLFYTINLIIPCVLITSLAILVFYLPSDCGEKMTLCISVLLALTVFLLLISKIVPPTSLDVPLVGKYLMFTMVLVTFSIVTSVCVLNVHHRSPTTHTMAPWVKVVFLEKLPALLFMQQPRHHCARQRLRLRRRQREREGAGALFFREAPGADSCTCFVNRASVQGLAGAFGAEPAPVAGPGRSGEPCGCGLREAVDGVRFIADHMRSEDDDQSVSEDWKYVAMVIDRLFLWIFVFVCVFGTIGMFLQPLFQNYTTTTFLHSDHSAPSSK
Sequence (P32297 whole entry): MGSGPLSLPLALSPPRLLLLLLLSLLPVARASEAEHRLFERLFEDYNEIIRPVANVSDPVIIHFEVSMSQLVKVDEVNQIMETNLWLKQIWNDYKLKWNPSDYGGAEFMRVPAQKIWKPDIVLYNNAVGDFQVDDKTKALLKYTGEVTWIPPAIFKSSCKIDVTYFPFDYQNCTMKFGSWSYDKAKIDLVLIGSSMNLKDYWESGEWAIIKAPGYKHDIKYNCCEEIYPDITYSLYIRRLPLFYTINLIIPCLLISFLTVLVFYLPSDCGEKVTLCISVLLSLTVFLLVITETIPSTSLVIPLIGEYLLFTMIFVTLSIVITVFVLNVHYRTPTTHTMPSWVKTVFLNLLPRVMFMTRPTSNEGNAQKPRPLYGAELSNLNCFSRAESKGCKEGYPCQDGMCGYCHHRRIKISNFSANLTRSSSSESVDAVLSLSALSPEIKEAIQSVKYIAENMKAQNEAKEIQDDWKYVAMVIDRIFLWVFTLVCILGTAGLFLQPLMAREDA
assay-overview: Binding affinity to nicotinic alpha3beta2 receptor receptor
pKi: −log10 of the molar value.
measure: pKi

[[record]]
sample_smiles = "Cl.Cn1c(=O)[nH]c2c([nH]c(=O)n2C)c1=N"
measure = "pKi"
reported_value = 5.38

